Reference source: ChEMBL document CHEMBL1139008

tested on: HFF; experiment: Selectivity index, CC50 in HFF cell/ EC50 against HCMV; format: functional
Parameter Selectivity index: see the listing below.
measurement_kind: Selectivity index

>  <compound>
Nc1ncnc2c1ncn2C[C@@H](CO)OCP(=O)(O)O

>  <measurement_kind>
Selectivity index

>  <result>
>352

$$$$
>  <compound>
CCCCCCCCCCCCCCCCOCCCOP(=O)([O-])CO[C@H](CO)Cn1cnc2c(N)ncnc21.[Na+]

>  <measurement_kind>
Selectivity index

>  <result>
3233

$$$$
>  <compound>
Nc1ccn(C[C@@H](CO)OCP(=O)(O)O)c(=O)n1.O.O [CIDOFOVIR]

>  <measurement_kind>
Selectivity index

>  <result>
>264

$$$$
>  <compound>
CCCCCCCC/C=C\CCCCCCCCOCCOP(=O)([O-])CO[C@H](CO)Cn1cnc2c(N)ncnc21.[Na+]

>  <measurement_kind>
Selectivity index

>  <result>
2100

$$$$
>  <compound>
CCCCCCCCCCCCCCCCCCOCCOP(=O)([O-])CO[C@H](CO)Cn1cnc2c(N)ncnc21.[Na+]

>  <measurement_kind>
Selectivity index

>  <result>
500

$$$$
>  <compound>
CCCCCCCC/C=C\CCCCCCCCOCCCOP(=O)([O-])CO[C@H](CO)Cn1cnc2c(N)ncnc21.[Na+]

>  <measurement_kind>
Selectivity index

>  <result>
25000

$$$$

###

Parameter CC50: see the listing below.
test system: HFF; assay: Cytotoxicity against HFF cell; type: functional; conditions: Homo sapiens
measurement_kind: CC50 (µM)

>  <smiles_repr>
Nc1ncnc2c1ncn2C[C@@H](CO)OCP(=O)(O)O

>  <prefix_operator>
>

>  <recorded_number>
289

$$$$
>  <smiles_repr>
CCCCCCCCCCCCCCCCCCOCCOP(=O)([O-])CO[C@H](CO)Cn1cnc2c(N)ncnc21.[Na+]

>  <prefix_operator>
=

>  <recorded_number>
1.5

$$$$
>  <smiles_repr>
CCCCCCCCCCCCCCCCOCCCOP(=O)([O-])CO[C@H](CO)Cn1cnc2c(N)ncnc21.[Na+]

>  <prefix_operator>
=

>  <recorded_number>
9.7

$$$$
>  <smiles_repr>
CCCCCCCC/C=C\CCCCCCCCOCCCOP(=O)([O-])CO[C@H](CO)Cn1cnc2c(N)ncnc21.[Na+]

>  <prefix_operator>
=

>  <recorded_number>
74.8

$$$$
>  <smiles_repr>
CCCCCCCC/C=C\CCCCCCCCOCCOP(=O)([O-])CO[C@H](CO)Cn1cnc2c(N)ncnc21.[Na+]

>  <prefix_operator>
=

>  <recorded_number>
6.3

$$$$
>  <smiles_repr>
Nc1ccn(C[C@@H](CO)OCP(=O)(O)O)c(=O)n1.O.O

>  <prefix_operator>
>

>  <recorded_number>
317

$$$$

###

tested on: Cowpox virus; experiment: Antiviral activity against Cowpox virus Brighton replication in HFF cells; assay type: functional, organism-based
pEC50: −log10 of the molar value.
Binary call on pEC50: fulfilled from 7 upward, not fulfilled beneath that.

>  <smiles_repr>
Nc1ccn(C[C@@H](CO)OCP(=O)(O)O)c(=O)n1.O.O

>  <answer_label>
not fulfilled

$$$$
>  <smiles_repr>
CCCCCCCCCCCCCCCCOCCCOP(=O)(O)CO[C@H](CO)Cn1ccc(N)nc1=O

>  <answer_label>
fulfilled

$$$$
>  <smiles_repr>
CCCCCCCC/C=C\CCCCCCCCOCCOP(=O)([O-])CO[C@H](CO)Cn1cnc2c(N)ncnc21.[Na+]

>  <answer_label>
fulfilled

$$$$
>  <smiles_repr>
CCCCCCCCCCCCCCCCCCOCCOP(=O)(O)CO[C@H](CO)Cn1ccc(N)nc1=O

>  <answer_label>
not fulfilled

$$$$
>  <smiles_repr>
CCCCCCCC/C=C\CCCCCCCCOCCCOP(=O)([O-])CO[C@H](CO)Cn1cnc2c(N)ncnc21.[Na+]

>  <answer_label>
fulfilled

$$$$
